Biological target: UniProt P49840
Experiment: GSK3α TR-FRET kinase assay
Type: biochemical
Details: 1 nM GSK3α, 4 μM ATP, 30 minute preincubation; geometric mean; read-out: GSK3-A TR-FRET BIOCHEMICAL (TR-FRET); GMean; IC50
Assignment: determine reported IC50 for the given compounds.

Return reported IC50; argument: CCC1(c2cccc(-c3ccncc3)c2)C2=C(CC(C)CC2=O)Nc2n[nH]cc21 (stereo not shown) [Compound 874315]
1000 to 5000 nM

Could you do the same for "CC[C@@]1(c2ccccc2)C2=C(C[C@@H](C(F)(F)F)CC2=O)Nc2n[nH]cc21" , please?
> 5000 nM

Could you do the same for "CC[C@]1(c2cccc(C(F)(F)F)c2)C2=C(CCN(c3cccc(C)c3)C2=O)Nc2n[nH]cc21" , please?
1000 to 5000 nM

Could you do the same for CCC1(c2cccc(C(F)(F)F)c2)C2=C(Nc3n[nH]cc31)C(F)C(C)(C)CC2=O (single isomer, unassigned) [Compound 837753] , please?
100 to 1000 nM

* * *

Target: GSK3α (GST-full length GSK3α) (Homo sapiens (Human), UniProt P49840)
Sequence (P49840 whole entry): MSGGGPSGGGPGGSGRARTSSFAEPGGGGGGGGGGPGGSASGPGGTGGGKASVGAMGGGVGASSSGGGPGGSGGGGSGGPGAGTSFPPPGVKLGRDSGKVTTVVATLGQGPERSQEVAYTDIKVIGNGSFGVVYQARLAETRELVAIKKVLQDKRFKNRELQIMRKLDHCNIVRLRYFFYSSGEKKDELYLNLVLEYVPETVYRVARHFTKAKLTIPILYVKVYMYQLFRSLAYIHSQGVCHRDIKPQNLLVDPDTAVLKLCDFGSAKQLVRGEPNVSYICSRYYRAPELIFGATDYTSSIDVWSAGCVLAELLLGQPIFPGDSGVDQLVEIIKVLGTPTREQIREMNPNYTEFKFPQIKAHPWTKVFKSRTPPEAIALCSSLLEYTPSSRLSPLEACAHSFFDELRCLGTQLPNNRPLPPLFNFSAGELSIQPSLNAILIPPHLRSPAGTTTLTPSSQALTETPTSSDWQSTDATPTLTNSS
Assay: GSK3α TR-FRET kinase assay
Format: biochemical
Conditions: 1 nM GSK3α, 4 μM ATP, 30 minute preincubation, Table 16; read-out: GSK3-A TR-FRET BIOCHEMICAL (TR-FRET); IC50
OUTCOME MEASURE: IC50

Return reported IC50; argument: "CC[C@]1(c2cccc(N(c3cccnc3)C(C)C)c2)C2=C(CC(C)(C)CC2=O)Nc2n[nH]cc21"
100 to 1000 nM

Could you do the same for CCC1(c2cccc(-c3ccnc(C(F)(F)F)c3)c2)C2=C(CC(C)(C)CC2=O)Nc2n[nH]c(C)c21 (stereo not drawn) [Compound 913049] , please?
100 to 1000 nM

Could you do the same for CCC1(c2cccc(C(F)(F)F)c2)C2=C(CCN(c3cc(C)n(C)n3)C2=O)Nc2n[nH]cc21 (stereo not drawn) , please?
100 to 1000 nM

Could you do the same for CCC1(c2cccc(N3CC(C)C(C)C3)c2)C2=C(CC(C)(C)CC2=O)Nc2n[nH]cc21 (stereo not drawn) [Compound 918327] , please?
1000 to 5000 nM

Could you do the same for "CC(C)N1CC2(C1)C1=C(CC(C)(C)CC1=O)Nc1n[nH]cc12" , please?
> 5000 nM

Could you do the same for "CC[C@@]1(c2cccc(S(=O)(=O)CC3CC3)c2)C2=C(CC(C)(C)CC2=O)Nc2n[nH]cc21" , please?
1000 to 5000 nM

Could you do the same for CCC1(c2cccc(-c3ccncc3C)c2)C2=C(CC(C)(C)CC2=O)Nc2n[nH]c(C)c21 (stereo not drawn) [Compound 883991] , please?
≤ 100 nM

Could you do the same for CCC1(c2cccc(-c3ccnc(OC)c3)c2)C2=C(CC(C)(C)CC2=O)Nc2n[nH]c(C)c21 (stereo not drawn) , please?
≤ 100 nM

Could you do the same for "CC[C@]1(c2cccc(C(C)C)c2)C2=C(CC(C)(C)NC2=O)Nc2n[nH]c(C)c21" , please?
≤ 100 nM

Could you do the same for CCC1(c2cccc(N(C)c3ccnc(C(F)(F)F)c3)c2)C2=C(CC(C)(C)CC2=O)Nc2n[nH]cc21 (stereo not drawn) , please?
≤ 100 nM

Could you do the same for "C[C@H]1COCC[C@@]12C1=C(CC(C)(C)CC1=O)Nc1n[nH]cc12" , please?
1000 to 5000 nM

Could you do the same for CCC1(c2cccc(-c3ccncc3C)c2)C2=C(CC(C)(C)CC2=O)Nc2n[nH]c(C)c21 (stereo not drawn) [Compound 913022] , please?
100 to 1000 nM

Could you do the same for "CC1(C)CC(=O)C2=C(C1)Nc1n[nH]cc1C21CN(CCc2ccccc2)C1" , please?
> 5000 nM

Could you do the same for CCC1(c2cccc(-c3ccnc(C)c3)c2)C2=C(CC(C)CC2=O)Nc2n[nH]cc21 (stereo not drawn) [Compound 932637] , please?
> 5000 nM

Could you do the same for CCC1(c2cccc(-c3cnn(CC4CCOC4)c3)c2)C2=C(CC(C)(C)NC2=O)Nc2n[nH]cc21 (stereo not drawn) , please?
100 to 1000 nM
